Test system: Tyrosine-protein kinase ABL1 (Homo sapiens), P00519 [M351T]
Conditions: at 0.1 µM
Listing of recorded inhibition by entry.
Note: unit % is implicit; provide only the numeric part.

Looking for the measured inhibition of COC(=O)Nc1nc2cc(Oc3ccc(NC(=O)Nc4ccccc4)cc3)ccc2[nH]1 , can you help? 28.9

Looking for the measured inhibition of COc1ccccc1-c1cc(/C=C2\C(=O)Nc3ncc(Br)cc32)cc(Br)c1O , can you help? 5.09

Looking for the measured inhibition of CN(c1ccc(NC(=O)NCCN2CCOCC2)cc1)c1ccnc(Nc2ccc(CS(C)(=O)=O)cc2)n1 , can you help? 3.59

Looking for the measured inhibition of COc1ccc(-c2nn3ncccc3c2-c2ccnc(Nc3ccc(F)c(F)c3)n2)cc1 , can you help? 17

Looking for the measured inhibition of c1ccc(-c2n[nH]cc2-c2ccnc(-c3ccc(OCCn4ccnc4)cc3)c2)nc1 , can you help? 43.8

***
Looking for the measured inhibition of Fc1ccc(Nc2nccc(-c3c(-c4ccc(C(F)(F)F)cc4)nn4ncccc34)n2)cc1F , can you help? 2.73

Looking for the measured inhibition of Fc1cccc(COc2ccc(Nc3ncncc3C#Cc3ccccc3)cc2Cl)c1 , can you help? 0.94

Looking for the measured inhibition of CCN1CCC(C(=O)Nc2n[nH]c3nnc(-c4cccc(F)c4F)cc23)CC1 , can you help? -0.54

Looking for the measured inhibition of COc1c(C(N)=O)cc(-c2ccc(Cl)cc2)cc1-c1ccc(S(N)(=O)=O)cc1 , can you help? 1.02
